Hey, just so you know, these numbers are from PubChem BioAssay AID1259343.

Answer each item with its documented inhibition.
Assay Method Text: Mycobacterium tuberculosis growth inhibition, primary screen (AID 1259343)
Condition Notes: at 10 µM, active compounds read high
About 2,900 (47%) of roughly 6,200 compounds were called active. So high a share suggests a set chosen from earlier hits. The list shows a part of the results.

Dear colleague, I am looking for the recorded inhibition of the following compound: O=[N+]([O-])c1cc(S(=O)(=O)C(F)(F)F)ccc1N1CCN(c2ccccc2F)CC1
24.3% (inactive)

Tell me the measured inhibition of CC(SC(=S)N1CCCC1)c1nc(C2CC2)no1 (stereo unspecified) , please.
-46.6% (inactive)

What does the data say about its inhibition? Entry: CCc1cc(=O)[nH]c(-n2nc(C)cc2NC(=O)c2ccc(-c3ccccc3)cc2)n1
103% (active)

State the recorded inhibition for this entry: O=[N+]([O-])c1cc(S(=O)(=O)Nc2cc(Cl)ccc2F)ccc1F
47.3% (inactive)

Consider the compound shown here: Cc1c(Br)c(Nc2ccc(Cl)cc2)nn1C What is its recorded inhibition?
-14.8% (inactive)

Item under review: Cc1cc(=O)[nH]c(-n2nc(C)cc2NC(=O)C(c2ccccc2)c2ccccc2)n1 . Reported inhibition?
101% (active)

Quick one: inhibition for Cc1cc(=O)[nH]c(-n2nc(C)cc2NC(=O)c2ccc(C)c(C)c2)n1 ?
100% (active)

Field request: inhibition | item: COc1cccc(CN(C)Cc2nc(-c3cccs3)no2)c1
54.7% (active)

Requested read-out: inhibition. Entry: COCc1cccc(C(=O)Nc2ccc(C(C)(C)C)cc2)c1
60.8% (active)

Entry N#Cc1ccccc1-c1ccc(COc2coc(CN3CCN(C(=O)c4ccc([N+](=O)[O-])o4)CC3)cc2=O)cc1 : reported inhibition = ?
102% (active)

Can you look up the measured inhibition of Cc1ccc(Cl)c2sc(N3CCNCC3)nc12 for me?
100% (active)

# inhibition lookup, item Nc1ncc(Cc2cc(Cl)ccc2Cl)s1
-17.2% (inactive)

Return reported inhibition; argument: COc1cccc(-c2ccc(NC(=O)C3CCCN(Cc4nccs4)C3)cc2)c1 (stereo unspecified)
48.2% (inactive)

Any idea what inhibition was measured for CC(C)c1ccc(NC(=O)C2CCS(=O)(=O)C2)cc1 (stereo unspecified) ?
75.6% (active)

If you can, please state the reported inhibition value of Cc1nc(COc2ccc3c(-c4ccccc4F)noc3n2)cs1 .
62.8% (active)

Which measured inhibition value corresponds to Oc1ccc(C=Nc2ccc3oc4ccccc4c3c2)c(O)c1O ?
95% (active)

I would be grateful if you could share the reported inhibition for CCCc1ncc(CN2CCCC(C(=O)Nc3ccc(-c4cccc(OC)c4)cc3)C2)cn1 (stereo unspecified) .
68.2% (active)

Fill in: inhibition of O=S(=O)(Nc1ccc(N2CCCC2)c(F)c1)c1cc(F)cc(F)c1 is ___
56.4% (active)

Which inhibition is listed for CCN(CC)CCN(C(=O)c1ccnn1CC)c1nc2c(C)c(Cl)ccc2s1 ?
38.3% (inactive)

Would you mind telling me what inhibition value was observed for Cn1c(CSc2ccccc2)nc2ccccc21 ?
39% (inactive)

Entry NCCOB(c1ccccc1)c1ccccc1 : reported inhibition = ?
101% (active)

# input compound: NC(N)=NCc1ccc(Cl)cc1Cl ; wanted: its inhibition
74.4% (active)

# lookup: inhibition of CC(C)CCOc1ncnc2c1sc1nc3c(cc12)COC(C)(C)C3
63.6% (active)

Form field: reported inhibition of CCCCCOc1ncnc2c1sc1nc3c(cc12)COC(C)(C)C3
51% (active)

Form field: reported inhibition of N#Cc1nc(C2CC2)oc1N1CCN(C(=O)Nc2ccccc2)CC1
21.4% (inactive)

What does the data say about its inhibition? Entry: Fc1ccc(-c2noc3nc(OCc4ncccn4)ccc23)cc1
46% (inactive)

What measured inhibition goes with COCc1cccc(C(=O)Nc2nc(C3CC3)cs2)c1 ?
5.98% (inactive)

Look up inhibition for this compound: COc1cccc(-c2ccc(NC(=O)C3CCCN(Cc4cccc(O)c4)C3)cc2)c1 (stereo unspecified)
70.1% (active)

inhibition lookup needed for Cc1cc(=O)[nH]c(-n2nc(C)cc2NC(=O)c2ccc(-c3ccccc3)cc2)n1 , thanks.
100% (active)

// lookup inhibition for Cc1cc(NC(=O)c2ccc(-c3ccccc3)cc2)n(-c2nc(C)c(C)c(=O)[nH]2)n1
100% (active)

Quick check: inhibition of Cc1csc(Nc2ccc(Cl)cc2)[n+]1-c1ccc(Cl)cc1 ?
16% (inactive)
